Numbers sourced from patent US12258609B2.

tested on: porcine pancreatic lipase type II (PPL type II); details: pig, 24 h, 10 wt.-%, pH 6.5
with enzyme, 24 h, 35° C. values for the compounds below.
Measured Endpoint: with enzyme, 24 h, 35° C. (%)

- CC(O)CC(=O)O (stereo not drawn) [3-BHB-FS, 3-hydroxybutyric acid]: 1.79
- OCC(O)CO: 0.08
- CCOC(=O)CC(C)O (stereo not drawn) [3-BHB-ethyl, 3-hydroxybutyric acid ethyl ester]: 0.12

====

test system: porcine pancreatic lipase type II (PPL type II); settings: 0 h, 10 wt.-%, pH 6.5
before splitting 0 h values for the molecules below.
Measured Endpoint: before splitting 0 h (%)

• OCC(O)CO = 0.07
• CC(O)CC(=O)O (stereo not drawn) [3-BHB-FS, 3-hydroxybutyric acid] = 0.04
• CCOC(=O)CC(C)O (stereo not drawn) [3-BHB-ethyl, 3-hydroxybutyric acid ethyl ester] = 0.16

====

tested on: porcine pancreatic lipase type II (PPL type II); details: 24 h, 10 wt.-%, pH 6.5
without enzyme 24 h, 35° C. values for the compounds below.
Measured Endpoint: without enzyme 24 h, 35° C. (%)

- CC(O)CC(=O)O (stereo not drawn) [3-BHB-FS, 3-hydroxybutyric acid]: 0.02
- OCC(O)CO: 0.05
- CCOC(=O)CC(C)O (stereo not drawn) [3-BHB-ethyl, 3-hydroxybutyric acid ethyl ester]: 0.18

====

system: Panzytrat® 40,000 (pancreatin); test: Cleavage experiments with and without Panzytrat 40,000 in FaSSIF medium (simulates the intestinal tract, pH 6.5); settings: the 11th table; FaSSIF (bowel, pH = 6.5), 0 h
Measured Endpoint: share in chromatogram, FaSSIF 0 h, Start (% area)

* CC(O)CC(=O)O (centres unmarked) [3-BHB-FS, 3-hydroxybutyric acid] | 0.04
* CC(O)CC(=O)OC(C)CC(=O)OCC(CO)OC(=O)CC(C)O (centres unmarked) [3-BHB-dimer-DG] | 7.56
* CC(O)CC(=O)OCC(CO)OC(=O)CC(C)O (centres unmarked) [3-BHB-DG, diglyceride of 3-hydroxybutyric acid] | 60.17
* CC(O)CC(=O)OC(C)CC(=O)OCC(O)CO (centres unmarked) [3-BHB-dimer-MG] | 0.42
* CC(O)CC(=O)OCC(O)CO (centres unmarked) [3-BHB-MG, monoglyceride of 3-hydroxybutyric acid] | 13.52
* CCOC(=O)CC(C)O (centres unmarked) [3-BHB-ethyl, 3-hydroxybutyric acid ethyl ester] | 0.16
* OCC(O)CO [glycerol] | 0.07
* CC(O)CC(=O)OCC(COC(=O)CC(C)O)OC(=O)CC(C)O (centres unmarked) [3-BHB-TG, triglyceride of 3-hydroxybutyric acid] | 16.40

====

test system: Panzytrat® 40,000 (pancreatin); assay: Cleavage experiments with and without Panzytrat 40,000 in FaSSIF medium (simulates the intestinal tract, pH 6.5); conditions: the 13th table; FaSSIF medium pH 6.5, 1 wt.-% Panzytrat 40,000, 24 h, 35° C.; in %
Measured Endpoint: with Panzytrat 24 h, 35° C.

* CC(O)CC(=O)OCC(COC(=O)CC(C)O)OC(=O)CC(C)O (stereo not drawn) [3-BHB-TG, triglyceride of 3-hydroxybutyric acid] | 12.83
* CC(O)CC(=O)O (stereo not drawn) [3-BHB-FS, 3-hydroxybutyric acid] | 2.60
* CC(O)CC(=O)OC(C)CC(=O)OCC(O)CO (stereo not drawn) | 0.00
* CCOC(=O)CC(C)O (stereo not drawn) [3-BHB-ethyl, 3-hydroxybutyric acid ethyl ester] | 0.20
* CC(O)CC(=O)OC(C)CC(=O)OCC(CO)OC(=O)CC(C)O (stereo not drawn) | 7.02
* CC(O)CC(=O)OCC(O)CO (stereo not drawn) [3-BHB-MG, monoglyceride of 3-hydroxybutyric acid] | 14.34
* OCC(O)CO | 0.07
* CC(O)CC(=O)OC(C)CC(=O)O (stereo not drawn) [3-BHB-dimer-FS, dimer of 3-hydroxybutyric acid] | 0.17
* CC(O)CC(=O)OCC(CO)OC(=O)CC(C)O (stereo not drawn) [3-BHB-DG, diglyceride of 3-hydroxybutyric acid] | 61.38

====

tested on: Panzytrat® 40,000 (pancreatin); test: Cleavage experiments with and without Panzytrat 40,000 in FaSSGF medium (simulates the stomach, pH 1.6); details: the 12th table; FaSSGF medium, before splitting
Measured Endpoint: before splitting (% area)

* CC(O)CC(=O)OC(C)CC(=O)OCC(O)CO (centres unmarked) [3-BHB-dimer-MG] | 0.39
* CC(O)CC(=O)OCC(O)CO (centres unmarked) [3-BHB-MG, monoglyceride of 3-hydroxybutyric acid] | 18.28
* CC(O)CC(=O)OCC(CO)OC(=O)CC(C)O (centres unmarked) [3-BHB-DG, diglyceride of 3-hydroxybutyric acid] | 55.85
* CC(O)CC(=O)OCC(COC(=O)CC(C)O)OC(=O)CC(C)O (centres unmarked) [3-BHB-TG, triglyceride of 3-hydroxybutyric acid] | 16.08
* CC(O)CC(=O)OC(C)CC(=O)OCC(CO)OC(=O)CC(C)O (centres unmarked) [3-BHB-dimer-DG] | 6.62

====

system: Panzytrat® 40,000 (pancreatin); assay: Cleavage experiments with and without Panzytrat 40,000 in FaSSIF medium (simulates the intestinal tract, pH 6.5); settings: the 11th table; FaSSIF (bowel, pH = 6.5), with Panzytrat, 24 h, 35° C.
Measured Endpoint: share in chromatogram, FaSSIF m.P. 24 h, 35° C. (% area)

* CC(O)CC(=O)OC(C)CC(=O)OCC(CO)OC(=O)CC(C)O (centres unmarked) | 7.02
* OCC(O)CO | 0.07
* CC(O)CC(=O)O (centres unmarked) [3-BHB-FS, 3-hydroxybutyric acid] | 2.60
* CC(O)CC(=O)OC(C)CC(=O)O (centres unmarked) [3-BHB-dimer-FS, dimer of 3-hydroxybutyric acid] | 0.17
* CC(O)CC(=O)OCC(O)CO (centres unmarked) [3-BHB-MG, monoglyceride of 3-hydroxybutyric acid] | 14.34

====

test system: Panzytrat® 40,000 (pancreatin); experiment: Cleavage experiments with and without Panzytrat 40,000 in FaSSGF medium (simulates the stomach, pH 1.6); conditions: the 11th table; FaSSGF (stomach, pH = 1.6), without Panzytrat, 24 h, 35° C.
Measured Endpoint: share in chromatogram, FaSSGF o.P. 24 h, 35° C. (% area)

- CC(O)CC(=O)OCC(CO)OC(=O)CC(C)O (stereo not drawn) [3-BHB-DG, diglyceride of 3-hydroxybutyric acid]: 37.01
- CC(O)CC(=O)OCC(COC(=O)CC(C)O)OC(=O)CC(C)O (stereo not drawn) [3-BHB-TG, triglyceride of 3-hydroxybutyric acid]: 7.55
- CC(O)CC(=O)OCC(O)CO (stereo not drawn) [3-BHB-MG, monoglyceride of 3-hydroxybutyric acid]: 21.09
- CC(O)CC(=O)OC(C)CC(=O)OCC(CO)OC(=O)CC(C)O (stereo not drawn) [3-BHB-dimer-DG]: 3.14
- CC(O)CC(=O)OC(C)CC(=O)OCC(O)CO (stereo not drawn) [3-BHB-dimer-MG]: 0.16
- CC(O)CC(=O)OC(C)CC(=O)O (stereo not drawn) [3-BHB-dimer-FS, dimer of 3-hydroxybutyric acid]: 3.25

====

test system: porcine pancreatic lipase type II (PPL type II); assay: Cleavage experiments with and without porcine pancreatic lipase in FaSSIF medium; conditions: the 14th table; FaSSIF medium, 0 h
before splitting 0 h values for the molecules below.
Measured Endpoint: before splitting 0 h

* CC(O)CC(=O)OC(C)CC(=O)OCC(O)CO (stereo not drawn) | 0.42
* CC(O)CC(=O)OCC(O)CO (stereo not drawn) [3-BHB-MG, monoglyceride of 3-hydroxybutyric acid] | 13.52
* CC(O)CC(=O)OC(C)CC(=O)O (stereo not drawn) [3-BHB-dimer-FS, dimer of 3-hydroxybutyric acid] | 0.00
